This collection of values is drawn from paper PMC12022103.

- Tested on: P. aeruginosa
- test: Minimum inhibitory concentration (MIC), broth dilution
- Format: cell-based
- experimentalParameters: MH II broth, 5 × 10^5 CFU/mL, 18–24 h, 37 °C, OD600; triplicate, highest number reported; detection limit <0.5 and >128 µM
No end group written: not given here.
measuredMetric: MIC, P. aeruginosa

substance: KKKKIIIAVLQLILLFL-NH2 [2d-N12]
result: > 128 µM
//
substance: KKKKIAVLQLILLFL-NH2 [2b-N12]
result: > 128 µM
//
substance: RRRRRRFVLRLILRLL-NH2 [2j-N12]
result: 64 µM
//
substance: KKKKAVLQLILLFL-NH2 [2a-N12]
result: > 128 µM
//
substance: VRRRRRAVLQLILRFL-NH2 [3a-N10]
result: 64 µM
//
substance: KKKKIIAVLQLILLFL-NH2 [2c-N12]
result: > 128 µM
//
substance: KKKKKKFVLQLILKLL-NH2 [2h-N12]
result: > 128 µM

====

- Test system: E. faecalis ATCC 29212
- test: Minimum inhibitory concentration (MIC), broth dilution
- Assay type: cell-based
- experimentalParameters: E. faecalis ATCC 29212; MH II broth, 5 × 10^5 CFU/mL, 18–24 h, 37 °C, OD600; triplicate, highest number reported; detection limit <0.5 and >128 µM
No end group written: not given here.

substance: KKKKFVLKLILKLL-NH2 [2e-N12]
inequalitySymbol: >
MIC, E. faecalis / µM: 128

substance: KKKKKKFVLQLILKLL-NH2 [2h-N12]
inequalitySymbol: >
MIC, E. faecalis / µM: 128

substance: RRRRRRFVLRLILRLL-NH2 [2j-N12]
inequalitySymbol: =
MIC, E. faecalis / µM: 32

substance: KKKKAVLQLILLFL-NH2 [2a-N12]
inequalitySymbol: >
MIC, E. faecalis / µM: 128

substance: KKKKIIIAVLQLILLFL-NH2 [2d-N12]
inequalitySymbol: >
MIC, E. faecalis / µM: 128

substance: VKKKKKAVLQLILKFLRRRR-NH2 [3b-N10]
inequalitySymbol: =
MIC, E. faecalis / µM: 4

substance: VRRRRRAVLQLILRFL-NH2 [3a-N10]
inequalitySymbol: =
MIC, E. faecalis / µM: 16

substance: KKKKKKFVLKLILKLL-NH2 [2g-N12]
inequalitySymbol: =
MIC, E. faecalis / µM: 64

substance: KKKKIIAVLQLILLFL-NH2 [2c-N12]
inequalitySymbol: >
MIC, E. faecalis / µM: 128

substance: RRRRFVLRLILRLL-NH2 [2i-N12]
inequalitySymbol: =
MIC, E. faecalis / µM: 64

substance: KKKKFVLQLILKLL-NH2 [2f-N12]
inequalitySymbol: >
MIC, E. faecalis / µM: 128

substance: KKKKIAVLQLILLFL-NH2 [2b-N12]
inequalitySymbol: >
MIC, E. faecalis / µM: 128

====

- Test system: K. pneumoniae ATCC 13883
- test: Minimum inhibitory concentration (MIC), broth dilution
- Type: cell-based
- experimentalParameters: K. pneumoniae ATCC 13883; MH II broth, 5 × 10^5 CFU/mL, 18–24 h, 37 °C, OD600; triplicate, highest number reported; detection limit <0.5 and >128 µM
No end group written: not given here.

substance: KKKKAVLQLILLFL-NH2 [2a-N12]
systemName: K. pneumoniae ATCC 13883
MIC, K. pneumoniae: > 128 µM

substance: VRRRRRAVLQLILRFL-NH2 [3a-N10]
systemName: K. pneumoniae ATCC 13883
MIC, K. pneumoniae: 32 µM

substance: KKKKIIAVLQLILLFL-NH2 [2c-N12]
systemName: K. pneumoniae ATCC 13883
MIC, K. pneumoniae: > 128 µM

substance: RRRRRRFVLRLILRLL-NH2 [2j-N12]
systemName: K. pneumoniae ATCC 13883
MIC, K. pneumoniae: 64 µM

substance: KKKKFVLQLILKLL-NH2 [2f-N12]
systemName: K. pneumoniae ATCC 13883
MIC, K. pneumoniae: > 128 µM

substance: KKKKIAVLQLILLFL-NH2 [2b-N12]
systemName: K. pneumoniae ATCC 13883
MIC, K. pneumoniae: > 128 µM

substance: KKKKFVLKLILKLL-NH2 [2e-N12]
systemName: K. pneumoniae ATCC 13883
MIC, K. pneumoniae: > 128 µM
